System: Renilla luciferase RNA
Test: Barcoded aptazyme variant library screen: un-cleaved Renilla luciferase RNA by barcode read counts, HEK293-T cells
Format: cell-based
Details: un-cleaved Renilla luciferase RNA, HEK293-T cells cultured with 1 mM theophylline (ON) over without theophylline (OFF); barcode read counts, triplicate
From the text: Based on the findings from Example 1, an aptazyme variant library was generated from the T3H48 ribozyme with one of seven variant theophylline aptamers inserted sequentially after each nucleotide of the DNA sequence encoding the T3H48 ribozyme sequence. […] The seven variant theophylline aptamers vary in their communication channels, which are the ribonucleotides of the aptamer that attach to the ribozyme sequence (see, Table 2). […]
Property: Fold change in RNA expression between the ON state and the OFF state; scope: individual molecules

molecule	result
RA143 (nucleic acid, expressed or natural sequence) DNA: GCGCGTCCTGGATTCGCGGAAACGCGTACATCCAGCTGACGAGTGATACCAGCATCGTCTTGATGCCCTTGGCAGCACTAGTCCCAAATAGGACGAAACGCGC	1.4 fold

Quick one: Fold change in RNA expression between the ON state and the OFF state for RA017 (nucleic acid, expressed or natural sequence) DNA: GCGCGTCCTGGCGGAATACCAGCATCGTCTTGATGCCCTTGGAAGTCCGATTCGCGGAAACGCGTACATCCAGCTGACGAGTCCCAAATAGGACGAAACGCGC ? 2.8 fold
